B1: ZC3H15 (parent)
chain: ENLFTGEDLDELEEELNTLDLEE

- Variants of: B1
- methodNotes: protein stability index of a GFP-peptide fusion (GPS, HEK-293T) (PSI 1-6); higher = more stable;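 note: lentivirally expressed fusions sorted by FACS into six bins by GFP to DsRed ratio, PSI derived from sequencing read proportions per bin multiplied by bin number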
- conditions: c terminus: native
// values below are reported protein stability index
// return a plain number; no unit text

Worked cases, protein stability index given:
# variantDescription, protein stability index
rows = [
    ("E22D", 5.75),
    ("N2P", 4.24),
    ("E22Y", 5.5),
    ("E23M", 4.61),
    ("L19K", 4.95),
    ("E22W", 5.39),
    ("E7C", 4.38),
    ("E23F", 5.07),
    ("D8H", 4.66),
    ("E1M", 3.76),
]

Would you kindly look at the next entry?
Input L12K , output reported protein stability index.
4.01
